SUBJECT_OF_TEST: 5'-AMP-activated protein kinase catalytic subunit alpha-2 (Homo sapiens, UniProt P54646)
Sequence (P54646 whole entry): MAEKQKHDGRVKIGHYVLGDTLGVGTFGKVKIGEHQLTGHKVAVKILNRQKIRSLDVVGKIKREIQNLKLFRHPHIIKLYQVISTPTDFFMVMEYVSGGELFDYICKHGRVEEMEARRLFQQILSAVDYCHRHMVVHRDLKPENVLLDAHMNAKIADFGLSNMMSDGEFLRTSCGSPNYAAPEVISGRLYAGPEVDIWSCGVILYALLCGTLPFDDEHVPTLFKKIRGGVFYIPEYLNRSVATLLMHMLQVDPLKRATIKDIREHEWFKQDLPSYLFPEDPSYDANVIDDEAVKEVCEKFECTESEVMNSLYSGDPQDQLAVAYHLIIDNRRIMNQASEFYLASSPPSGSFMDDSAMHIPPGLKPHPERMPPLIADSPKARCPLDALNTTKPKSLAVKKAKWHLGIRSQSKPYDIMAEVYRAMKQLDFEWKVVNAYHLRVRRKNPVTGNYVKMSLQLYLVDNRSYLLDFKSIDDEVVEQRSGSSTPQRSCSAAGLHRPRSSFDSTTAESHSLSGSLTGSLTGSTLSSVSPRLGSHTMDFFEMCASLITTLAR
TEST_PROTOCOL: AMPKalpha2(PRA2LGY1) Takeda global kinase panel
RESULT_TYPE: IC50
Just the number plus its unit, please.

Request: Which IC50 is listed for CN1C(=O)[C@@H](N2CCc3c(nn(Cc4ccccc4)c3Br)C2=O)COc2ccccc21 [TP-030-2] ?
Result: 1 µM

###

SUBJECT_OF_TEST: RAC-beta serine/threonine-protein kinase (Homo sapiens)
Sequence (P31751 whole entry): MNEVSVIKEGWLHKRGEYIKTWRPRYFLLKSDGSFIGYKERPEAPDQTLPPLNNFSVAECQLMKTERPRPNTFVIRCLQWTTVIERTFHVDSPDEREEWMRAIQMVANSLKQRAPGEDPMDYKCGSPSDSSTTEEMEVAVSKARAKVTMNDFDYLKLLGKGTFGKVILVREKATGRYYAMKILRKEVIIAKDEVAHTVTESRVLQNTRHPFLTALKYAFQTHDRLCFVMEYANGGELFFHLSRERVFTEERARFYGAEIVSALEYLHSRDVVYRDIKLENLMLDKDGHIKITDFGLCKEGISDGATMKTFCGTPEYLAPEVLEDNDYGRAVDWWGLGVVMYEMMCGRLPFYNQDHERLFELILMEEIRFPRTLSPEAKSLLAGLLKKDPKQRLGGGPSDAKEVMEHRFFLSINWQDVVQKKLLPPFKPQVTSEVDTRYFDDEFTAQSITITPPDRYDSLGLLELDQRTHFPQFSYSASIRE
TEST_PROTOCOL: Akt2 [PKBbeta(AKT2CGY1)] Takeda global kinase panel
RESULT_TYPE: IC50

Request: Record request: IC50 value, item CN1C(=O)[C@@H](N2CCc3c(nn(Cc4ccccc4)c3Br)C2=O)COc2ccccc21 [TP-030-2]
Result: 1000 nM

###

SUBJECT_OF_TEST: cAMP-dependent protein kinase catalytic subunit PRKX (Homo sapiens, UniProt P51817)
Sequence (P51817 whole entry): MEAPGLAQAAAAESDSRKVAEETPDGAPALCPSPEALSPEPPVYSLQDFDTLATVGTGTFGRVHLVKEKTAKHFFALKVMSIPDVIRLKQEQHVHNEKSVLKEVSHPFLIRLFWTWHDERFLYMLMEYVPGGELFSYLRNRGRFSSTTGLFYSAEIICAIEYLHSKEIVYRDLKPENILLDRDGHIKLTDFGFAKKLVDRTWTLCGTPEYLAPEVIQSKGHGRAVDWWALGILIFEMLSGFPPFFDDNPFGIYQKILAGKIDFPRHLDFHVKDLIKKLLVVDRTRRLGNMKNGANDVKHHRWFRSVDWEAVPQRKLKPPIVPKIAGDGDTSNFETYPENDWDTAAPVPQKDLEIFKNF
TEST_PROTOCOL: PRKX(PRKXLGH5) Takeda global kinase panel
RESULT_TYPE: pIC50
Answer as the number alone; pIC50 is minus log10 of concentration in mol/L.

Request: Which pIC50 is reported for this molecule? CN1C(=O)[C@@H](N2CCc3c(nn(Cc4ccccc4)c3Br)C2=O)COc2ccccc21 [TP-030-2]
Result: 6.00

###

SUBJECT_OF_TEST: BMP-2-inducible protein kinase (Homo sapiens, UniProt Q9NSY1)
Sequence (Q9NSY1 whole entry): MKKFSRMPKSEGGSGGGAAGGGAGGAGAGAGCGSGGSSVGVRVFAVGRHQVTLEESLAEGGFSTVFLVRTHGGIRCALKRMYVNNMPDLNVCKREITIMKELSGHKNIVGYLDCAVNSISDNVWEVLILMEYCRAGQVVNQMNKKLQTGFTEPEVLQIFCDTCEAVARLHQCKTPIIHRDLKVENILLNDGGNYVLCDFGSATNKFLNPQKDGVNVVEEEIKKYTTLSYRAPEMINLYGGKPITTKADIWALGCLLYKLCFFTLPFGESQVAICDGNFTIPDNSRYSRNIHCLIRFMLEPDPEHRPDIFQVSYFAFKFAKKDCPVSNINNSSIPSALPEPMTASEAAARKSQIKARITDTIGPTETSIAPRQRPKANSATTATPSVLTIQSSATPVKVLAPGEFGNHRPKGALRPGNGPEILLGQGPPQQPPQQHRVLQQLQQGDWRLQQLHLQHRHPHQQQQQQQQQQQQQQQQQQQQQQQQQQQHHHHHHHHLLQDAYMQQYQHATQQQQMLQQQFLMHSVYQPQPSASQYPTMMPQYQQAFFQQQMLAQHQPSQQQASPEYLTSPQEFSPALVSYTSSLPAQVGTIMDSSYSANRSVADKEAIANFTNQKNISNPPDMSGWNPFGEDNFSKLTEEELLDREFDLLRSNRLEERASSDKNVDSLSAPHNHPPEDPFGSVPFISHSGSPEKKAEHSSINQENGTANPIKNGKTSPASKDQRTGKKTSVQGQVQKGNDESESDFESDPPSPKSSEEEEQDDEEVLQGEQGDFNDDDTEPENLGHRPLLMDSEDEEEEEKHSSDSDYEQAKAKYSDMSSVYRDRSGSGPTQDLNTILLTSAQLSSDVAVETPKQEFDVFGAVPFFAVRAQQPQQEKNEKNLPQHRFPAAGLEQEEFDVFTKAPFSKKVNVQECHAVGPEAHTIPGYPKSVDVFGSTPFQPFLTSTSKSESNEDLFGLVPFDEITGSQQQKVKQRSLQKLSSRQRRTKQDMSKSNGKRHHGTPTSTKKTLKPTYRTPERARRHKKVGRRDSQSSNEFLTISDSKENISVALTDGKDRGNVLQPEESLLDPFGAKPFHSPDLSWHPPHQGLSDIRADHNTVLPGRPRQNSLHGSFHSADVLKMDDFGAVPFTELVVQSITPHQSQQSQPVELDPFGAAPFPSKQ
RESULT_TYPE: pIC50
pIC50 here is simply -log10 of the concentration when that concentration is written in mol/L.

Request: Please give the measured pIC50 for this compound: CN1C(=O)[C@@H](N2CCc3c(nn(Cc4ccccc4)c3Br)C2=O)COc2ccccc21 [TP-030-2]
Result: 6.00

###

SUBJECT_OF_TEST: LIM domain kinase 1 (Homo sapiens, UniProt P53667)
Sequence (P53667 whole entry, the tested form may be a part): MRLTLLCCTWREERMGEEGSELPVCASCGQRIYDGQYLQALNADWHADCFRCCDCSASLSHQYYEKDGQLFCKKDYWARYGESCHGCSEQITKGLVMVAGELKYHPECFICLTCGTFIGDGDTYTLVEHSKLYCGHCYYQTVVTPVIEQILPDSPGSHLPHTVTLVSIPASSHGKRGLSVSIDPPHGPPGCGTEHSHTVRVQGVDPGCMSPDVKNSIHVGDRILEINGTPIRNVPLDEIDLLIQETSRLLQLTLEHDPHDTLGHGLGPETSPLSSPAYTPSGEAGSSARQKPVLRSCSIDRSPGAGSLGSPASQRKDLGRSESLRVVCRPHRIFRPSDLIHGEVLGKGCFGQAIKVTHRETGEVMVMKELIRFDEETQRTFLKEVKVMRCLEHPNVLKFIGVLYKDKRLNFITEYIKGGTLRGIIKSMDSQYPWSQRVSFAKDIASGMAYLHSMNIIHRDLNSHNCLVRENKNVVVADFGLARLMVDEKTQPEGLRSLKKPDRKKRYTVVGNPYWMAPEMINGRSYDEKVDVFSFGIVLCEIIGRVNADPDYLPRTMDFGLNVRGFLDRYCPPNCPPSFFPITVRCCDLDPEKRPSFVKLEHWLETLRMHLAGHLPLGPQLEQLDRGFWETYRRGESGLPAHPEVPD
RESULT_TYPE: IC50 (nM)
Respond numerically; units are nM and should not be typed.

Request: What is its IC50 for LIM domain kinase 1 (Homo sapiens, UniProt P53667)? Entry: CN1C(=O)[C@@H](N2CCc3c(nn(Cc4ccccc4)c3Br)C2=O)COc2ccccc21 [TP-030-2]
Result: 1000

###

SUBJECT_OF_TEST: STE20/SPS1-related proline-alanine-rich protein kinase (Homo sapiens, UniProt Q9UEW8)
RESULT_TYPE: pIC50
Notebook: values listed as pIC50 are -log10 of the concentration (mol/L).

Request: Look up pIC50 for this compound: CN1C(=O)[C@@H](N2CCc3c(nn(Cc4ccccc4)c3Br)C2=O)COc2ccccc21
Result: 6.00

###

SUBJECT_OF_TEST: Serine/threonine-protein kinase Nek8 (Homo sapiens, UniProt Q86SG6)
Sequence (Q86SG6 whole entry): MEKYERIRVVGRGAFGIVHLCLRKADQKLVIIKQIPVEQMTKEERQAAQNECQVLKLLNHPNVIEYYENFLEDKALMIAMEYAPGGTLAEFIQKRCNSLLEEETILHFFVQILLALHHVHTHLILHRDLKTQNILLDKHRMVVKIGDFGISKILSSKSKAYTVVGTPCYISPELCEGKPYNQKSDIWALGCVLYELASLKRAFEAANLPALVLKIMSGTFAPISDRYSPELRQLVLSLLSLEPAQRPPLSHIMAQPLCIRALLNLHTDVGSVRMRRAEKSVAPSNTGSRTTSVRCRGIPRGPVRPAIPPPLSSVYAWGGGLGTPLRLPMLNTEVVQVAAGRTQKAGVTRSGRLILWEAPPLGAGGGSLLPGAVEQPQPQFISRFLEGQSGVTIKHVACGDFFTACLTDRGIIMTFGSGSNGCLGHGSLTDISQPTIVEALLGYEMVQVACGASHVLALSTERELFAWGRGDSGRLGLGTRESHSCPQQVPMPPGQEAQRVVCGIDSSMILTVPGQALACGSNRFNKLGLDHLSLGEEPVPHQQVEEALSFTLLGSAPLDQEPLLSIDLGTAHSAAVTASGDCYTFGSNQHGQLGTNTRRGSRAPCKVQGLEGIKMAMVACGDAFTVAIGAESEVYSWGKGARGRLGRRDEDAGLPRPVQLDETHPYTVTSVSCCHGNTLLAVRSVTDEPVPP
RESULT_TYPE: pIC50
// pIC50 is dimensionless: -log10 of concentration (M)

Request: Can you share its pIC50? I mean this molecule: CN1C(=O)[C@@H](N2CCc3c(nn(Cc4ccccc4)c3Br)C2=O)COc2ccccc21
Result: 6.00
